Experiment: Metabolic stability in liver S9 fraction (disappearance, half-life, CLint)
Settings: Sprague-Dawley, rat, pooled liver S9, pH 7.4
Experimental: Calibration curves were generated using an external standard. Intrinsic in vitro clearance was calculated as follows: […]
quantity.name: half-life at 10 µM (min)
Number in min, nothing else.

Examples from the recorded data:
compound	value.measured
CCCCCCCCOCCOCCOCCOCCO [C8EO4]	58.1
CCCCCCCCCCOCCOCCOCCOCCOCCO [C10EO5]	12

Please find the next compound below.
Per the records, this compound ( CCCCCCCCCCCCOCCOCCOCCOCCO [C12EO4] ) has half-life at 10 µM equal to 11
